- Target System: T1, human TIM-3 protein with hFc tag (hTIM-3-hFc protein) (human, UniProt Q8TDQ0 22-200)
- T1 construct: also called immunogen 1; human TIM-3 extracellular domain protein; not shown: human IgG Fc fragment (hFc) of the pCpC vector
- T1 sequence: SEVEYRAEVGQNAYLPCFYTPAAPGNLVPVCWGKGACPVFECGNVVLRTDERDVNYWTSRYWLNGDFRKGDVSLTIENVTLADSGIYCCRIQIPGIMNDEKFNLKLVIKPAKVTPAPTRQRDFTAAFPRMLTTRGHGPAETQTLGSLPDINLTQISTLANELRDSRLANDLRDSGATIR
- Protocol Description: ELISA, coated hTIM-3-hFc; antibody 0.6667 nM
Friendly reminder: OD450 below 1 is True, at or above is False.

Please review the entries below; each comes with its answer.
| Binder | Label Class |
| --- | --- |
| 18D2H2 (TIM-3 antibody purified from hybridoma, chimeric antibody of Example 2) (antibody, V domains shown, From hybridoma of Harbour H2L2 transgenic mice: human variable regions, rat constant regions) VH: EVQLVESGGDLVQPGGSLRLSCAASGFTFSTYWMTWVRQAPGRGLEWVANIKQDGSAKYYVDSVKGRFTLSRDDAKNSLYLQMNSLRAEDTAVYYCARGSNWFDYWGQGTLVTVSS VL: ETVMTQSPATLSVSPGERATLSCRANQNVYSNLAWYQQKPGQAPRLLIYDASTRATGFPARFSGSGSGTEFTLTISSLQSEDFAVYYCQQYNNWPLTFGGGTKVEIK | False |
| 34B6D8 (TIM-3 antibody purified from hybridoma, chimeric antibody of Example 2) (antibody, V domains shown, From hybridoma of Harbour H2L2 transgenic mice: human variable regions, rat constant regions) VH: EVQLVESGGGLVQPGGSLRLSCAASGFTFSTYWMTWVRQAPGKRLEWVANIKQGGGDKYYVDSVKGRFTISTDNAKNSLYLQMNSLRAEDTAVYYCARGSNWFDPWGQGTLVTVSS VL: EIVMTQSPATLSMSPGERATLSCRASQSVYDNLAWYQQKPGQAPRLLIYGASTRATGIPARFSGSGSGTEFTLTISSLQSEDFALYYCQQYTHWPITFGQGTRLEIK | False |
| 7A4F10 (TIM-3 antibody purified from hybridoma, chimeric antibody of Example 2) (antibody, V domains shown, From hybridoma of Harbour H2L2 transgenic mice: human variable regions, rat constant regions) VH: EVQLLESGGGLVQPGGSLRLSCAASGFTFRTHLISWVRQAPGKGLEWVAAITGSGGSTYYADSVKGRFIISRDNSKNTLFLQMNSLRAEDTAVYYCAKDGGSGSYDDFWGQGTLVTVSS VL: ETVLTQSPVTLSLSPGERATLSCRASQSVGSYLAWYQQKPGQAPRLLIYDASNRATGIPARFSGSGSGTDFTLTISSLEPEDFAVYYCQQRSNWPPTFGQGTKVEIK | True |
| 57F4E5 (TIM-3 antibody purified from hybridoma, chimeric antibody of Example 2) (antibody, V domains shown, From hybridoma of Harbour H2L2 transgenic mice: human variable regions, rat constant regions) VH: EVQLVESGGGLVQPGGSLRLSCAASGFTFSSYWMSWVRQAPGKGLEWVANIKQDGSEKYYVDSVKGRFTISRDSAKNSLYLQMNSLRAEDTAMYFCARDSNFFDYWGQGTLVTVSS VL: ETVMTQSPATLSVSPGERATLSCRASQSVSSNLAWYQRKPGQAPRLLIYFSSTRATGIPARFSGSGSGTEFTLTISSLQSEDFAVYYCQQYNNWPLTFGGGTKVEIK | False |

Please check: OD450 for 39E5H1 (TIM-3 antibody purified from hybridoma, chimeric antibody of Example 2) (antibody, V domains shown, From hybridoma of Harbour H2L2 transgenic mice: human variable regions, rat constant regions) VH: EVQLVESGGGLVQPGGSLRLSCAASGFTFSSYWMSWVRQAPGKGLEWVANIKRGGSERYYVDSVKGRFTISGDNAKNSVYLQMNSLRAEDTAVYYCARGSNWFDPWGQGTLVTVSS VL: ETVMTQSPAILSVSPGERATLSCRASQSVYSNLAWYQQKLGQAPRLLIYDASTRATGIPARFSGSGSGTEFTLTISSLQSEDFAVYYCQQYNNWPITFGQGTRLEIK , strictly under 1 or not?
False

Identify whether the binder 134H3G6 (TIM-3 antibody purified from hybridoma, chimeric antibody of Example 2) (antibody, V domains shown, From hybridoma of Harbour H2L2 transgenic mice: human variable regions, rat constant regions) VH: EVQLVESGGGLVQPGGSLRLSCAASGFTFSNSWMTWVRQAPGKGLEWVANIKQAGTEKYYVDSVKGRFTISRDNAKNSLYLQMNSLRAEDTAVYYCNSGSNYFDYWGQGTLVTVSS VL: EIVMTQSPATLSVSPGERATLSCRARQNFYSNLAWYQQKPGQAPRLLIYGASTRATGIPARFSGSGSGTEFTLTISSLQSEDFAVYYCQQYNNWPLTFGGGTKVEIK records OD450 below 1.
True
